# protocol.summary: Particle size of nucleic acid lipid particles (Luc2-siRNA)
# Assay type: physicochemical
# condition.description: compound/DSPC/cholesterol/DMG-PEG2000 50/10/38.5/1.5
measurement.kind: Particle size (nm)

>>> test_value("CCCCCCCCC(CCCCCC)COC(=O)CCCCCCCC(CCCCCC)OC(=O)OCCN(CCN(CC)CC)C(C)C (centres unmarked)")
77.3
>>> test_value("CCCCCCC(=O)OCCN(CCOC(=O)OC(CCCCCC)CCCCCCCCC(=O)OCC(CCCC)CCCCCC)CCN(CC)CC (centres unmarked)")
76.6
>>> test_value("CCCCC/C=C\\C/C=C\\CCCCCCCCN(CCCCCCCC/C=C\\C/C=C\\CCCCC)C(=O)OCCCN(C)CCN(C)C")
80.5
>>> test_value("CCCCC/C=C\\C/C=C\\CCCCCCCCC(CCCCCCCC/C=C\\C/C=C\\CCCCC)OC(=O)OCCN(CC)CCN1CCOCC1")
69.3
>>> test_value("CCCCCCCC(=O)OCCN(CCOC(=O)OC(CCCCCC)CCCCCCCCC(=O)OCCC(CCCCC)CCCCC)CCN(CC)CC (centres unmarked)")
73.8
>>> test_value("CCCCC/C=C\\C/C=C\\CCCCCCCC(=O)OCC(COC(=O)CCCCCCC/C=C\\C/C=C\\CCCCC)OC(=O)OCCN(CC)CCN(C)C")
80.1
>>> test_value("CCCCC/C=C\\C/C=C\\CCCCCCCCC(CCCCCCCC/C=C\\C/C=C\\CCCCC)OC(=O)OCCN(CCC)CCN(CC)CC")
69.4
>>> test_value("CCCCC/C=C\\C/C=C\\CCCCCCCCN(CCCCCCCC/C=C\\C/C=C\\CCCCC)C(=O)CCN(C)CCN(C)C [Comparative Example 7, reference compound]")
71.9

---

# Tested on: Factor VII (FVII) protein
# protocol.summary: Measurement of Factor VII (FVII) protein in mouse plasma after FVII-siRNA lipid particles
# Type: in vivo, C57BL6/J mice
# condition.description: 0.1 mg/kg caudal vein, plasma 24 hours after administration, PBS group = 100%
# Lookup of reported Relative amount of FVII protein (%) keyed by entry
The reply should contain only the number, in %.

// worked examples, Relative amount of FVII protein (%) included
>>> test_value("CCCCCCCCC(CCCCCC)C(=O)OCCCCC(CCCCOC(=O)C(CCCCCC)CCCCCCCC)OC(=O)OCCN(CC)CCN(CC)CC (stereo not shown) [Example 73]")
1
>>> test_value("CCCCCCCCCCC(CCCCCCCCC(=O)OCC(CCCC)CCCCCC)OC(=O)OCCN(CC)CCN(CC)CC (stereo not shown) [Example 68]")
9

Kindly review the next molecule as well.
Per the record, CCCCCCCC/C=C\CCCCCCCC(=O)OCCCCCCC(CCCCCCOC(=O)CCCCCCC/C=C\CCCCCCCC)OC(=O)OCCN(CCN(CC)CC)C(C)C [Example 48] has Relative amount of FVII protein (%) of 20

---

# protocol.summary: Encapsulation rate of siRNA in nucleic acid lipid particles (Luc2-siRNA)
# Type: physicochemical
# condition.description: compound/DSPC/cholesterol/DMG-PEG2000 50/10/38.5/1.5
measurement.kind: Nucleic acid encapsulation rate (%)

>>> test_value("CCCCCCC(CCCC)COC(=O)CCCC(CCCCCC)OC(=O)OCCN(CC)CCN(CC)CC (centres unmarked)")
61
>>> test_value("CCCCC/C=C\\C/C=C\\CCCCCCCCC(CCCCCCCC/C=C\\C/C=C\\CCCCC)OC(=O)OCCN(CCN(CC)CC)Cc1ccccc1")
76
>>> test_value("CCCCCCCC/C=C\\CCCCCCCCOC(=O)CCCC(CCCCCC)OC(=O)OCCN(CCN(CC)CC)C(C)C (centres unmarked)")
69
>>> test_value("CCCCCCC(CCCC)COC(=O)CCCCCCCCC(CCCCCCCCC(=O)OCC(CCCC)CCCCCC)OC(=O)OCCN(CC)CCN(CC)CC (centres unmarked)")
81
>>> test_value("CCCCCCCCC(=O)OCCN(CCOC(=O)OC(CCCCCC)CCCCCCCCC(=O)OCC(CCCC)CCCCCC)CCN(CC)CC (centres unmarked)")
80
>>> test_value("CCCCC/C=C\\C/C=C\\CCCCCCCCC(CCCCCCCC/C=C\\C/C=C\\CCCCC)OC(=O)OCCN(CCCCCC)CCN(C)C")
85
>>> test_value("CCCCCCCCCC(CCCCCCCCC)COC(=O)CCCC(CCCCCC)OC(=O)OCCN(CCN(CC)CC)C(C)C (centres unmarked)")
69
>>> test_value("CCCCC/C=C\\C/C=C\\CCCCCCCCN(CCCCCCCC/C=C\\C/C=C\\CCCCC)C(=O)OCCN(C)CCCN(C)C")
83

These data points were gathered from patent US12370143B2.
